Cited source for all entries: ChEMBL document CHEMBL1150962

test system: Ishikawa; assay: Antiestrogenic activity in human Ishikawa cells assessed as inhibition of estrogen-induced alkaline phosphatase activity after 4 days by ELISA; settings: 96 h
recorded-metric: IC50 (µM)
Just the number please, in µM, no unit attached.

Query block: What measured IC50 is associated with CC/C(=C(\c1ccccc1)c1ccc(OCCN(C)C)cc1)c1ccccc1 on Ishikawa?
Result block: 0.42

* * *

Here the recorded pIC50 is given for each entry.
molecular target: Anti-estrogen binding site (Rattus norvegicus); experiment: Displacement of [3H]tamoxifen from antiestrogen binding site in Sprague-Dawley rat liver by liquid scintillation counting
Quick note: pIC50 values are minus log10 of concentrations in mol/L.

// below: answered compounds
given-smiles: CC(C)[C@@H]1CN(C2=CC[C@@]3(C)[C@@H](CC[C@@H]4[C@@H]3CC[C@]3(C)[C@@H]([C@H](C)N(C)C)[C@@H](O)C[C@@H]43)C2=O)C1=O
assay-target: Anti-estrogen binding site (Rattus norvegicus)
pIC50: 5.46

given-smiles: CO[C@H]1CC[C@@]2(C)C(=CC[C@H]3[C@@H]4CC[C@H]([C@H](C)N(C)C)[C@@]4(C)CC[C@@H]32)C1
assay-target: Anti-estrogen binding site (Rattus norvegicus)
pIC50: 6.40

Proceeding to the next compound to report its pIC50.
Query block: State its pIC50 on Anti-estrogen binding site (Rattus norvegicus): CC(=O)O[C@H]1C(NC(=O)c2ccccc2)=CC[C@]2(C)[C@H]3CC[C@]4(C)[C@@H]([C@H](C)N(C)C)CC[C@H]4[C@@H]3CC[C@@H]12
Result block: 6.22

* * *

biological target: Anti-estrogen binding site (Rattus norvegicus); assay: Displacement of [3H]tamoxifen from antiestrogen binding site in Sprague-Dawley rat liver by liquid scintillation counting
Listed below: pIC50 values for each entry.
Keep in mind that pIC50 stands for -log10 of concentration in molar terms.

Query block: Need pIC50 of C[C@@H]([C@H]1CC[C@H]2[C@@H]3CC[C@H]4C[C@]5(CC[C@]4(C)[C@H]3CC[C@]12C)c1ccccc1C(=O)N5C)N(C)C , thanks.
Result block: 5.13

Query block: Fill in: pIC50 of CC(C)=CC(=O)N(C)[C@@H]1CC[C@@]2(C)[C@@H](CC[C@@H]3[C@@H]2CC[C@]2(C)[C@@H]([C@H](C)N(C)C)CC[C@@H]32)C1 [(+)-PACHYSAMINE B] is ___
Result block: 6.22

Query block: Which measured pIC50 value corresponds to C[C@@H]([C@H]1CC[C@H]2[C@@H]3CC[C@H]4C(=O)C(NC(=O)c5ccccc5)=CC[C@]4(C)[C@H]3CC[C@]12C)N(C)C ?
Result block: 5.10
